Test: chemical genetic growth profiling, strain panel (AID 1159580);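 note: tested at 20 µM; growth read once vehicle control cultures reached saturation at 30 °C; 1 = growth at the plate median or of vehicle wells; lower values mean less growth of the strain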
Settings: S. cerevisiae deletion strains, growth OD, locus YGR052W, strain FMP48
In all, about 5,500 compounds went through this assay and about 2,000 (36%) were called active. About 18% were inconclusive and are not listed. Cut-off read from the data, not from the text of the source: active = normalized growth mostly below about 0.91 (no sharp cut-off); inconclusive = no clear call, values can overlap the other calls; inactive = mostly above about 0.92. The list shows a part of the results.
Pick one and only one: 1 for active, -1 for inactive

Before answering, review these 10 worked examples.
{"Compound": "CCOC(=O)c1cnc(-c2ccccn2)[nH]c1=O", "Class Label": -1}
{"Compound": "Cc1ccc2nc3c(nc2c1)-c1ccccc1C3=O", "Class Label": 1}
{"Compound": "N/C(=N/OCc1c(F)cccc1Cl)c1ccc(Cl)cc1", "Class Label": -1}
{"Compound": "C=CCC1C(=O)N(S(=O)(=O)c2ccc(Cl)cc2)N=C1CCC (configuration not stated)", "Class Label": -1}
{"Compound": "FC(F)(F)c1c2c(nc3cc(-c4ccco4)nn13)CCC2", "Class Label": -1}
{"Compound": "CCOC(=O)c1ccc(N=Cc2cc(Cl)cc(Cl)c2O)cc1", "Class Label": 1}
{"Compound": "O=[N+]([O-])c1ccc(Sc2ccccc2)cc1O", "Class Label": -1}
{"Compound": "O=[N+]([O-])c1ccc(Sc2ccccc2)c([N+](=O)[O-])c1", "Class Label": -1}
{"Compound": "Cc1cc(N=Cc2cc(Cl)cc(Cl)c2O)no1", "Class Label": 1}
{"Compound": "COc1ccc(OC)c2nc3c(nc12)C(=O)c1ccccc1-3", "Class Label": -1}

Ask: GET /call?item= O=C1c2ccccc2C(=O)c2sccc21 returns the recorded outcome of this test.
Result: 1

Ask: // outcome(item) with item = O=C1C(NCc2ccccc2)=C(NCc2ccccc2)C(=O)c2ccccc21
Result: -1

* * *

Experiment: chemical genetic growth profiling, strain panel (AID 1159580);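 note: tested at 20 µM; growth read once vehicle control cultures reached saturation at 30 °C; 1 = growth at the plate median or of vehicle wells; lower values mean less growth of the strain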
Conditions: S. cerevisiae deletion strains, growth OD, locus YDL101C, strain DUN1, hits give low values
The whole screen tested about 5,500 compounds, of which about 2,000 (36%) were called active. Roughly 18% stayed inconclusive and do not appear here. The list shows a part of the results.
Assign labels as follows, please: criterion met for normalized growth below 1; criterion not met for normalized growth equal to or exceeding 1.

Please review the following examples before continuing.
{"Compound": "ClC1C(Cl)C(Cl)C(Cl)C(Cl)C1Cl (stereo unspecified)", "Class Label": "criterion met"}
{"Compound": "O=[N+]([O-])c1ccc(Sc2ccccc2)cc1O", "Class Label": "criterion met"}
{"Compound": "FC(F)(F)c1c2c(nc3cc(-c4ccco4)nn13)CCC2", "Class Label": "criterion met"}
{"Compound": "FC(F)(F)c1cc(-c2ccc(Cl)cc2)nc2cc(C3CC3)nn12", "Class Label": "criterion not met"}

Lab note: next compound to report on.
Ask: Please determine if CC(=O)c1ccc(Sc2ccccc2)c([N+](=O)[O-])c1 is below 1 in terms of normalized growth.
Result: criterion met

* * *

Test: chemical genetic growth profiling, strain panel (AID 1159580);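 note: tested at 20 µM; growth read once vehicle control cultures reached saturation at 30 °C; 1 = growth at the plate median or of vehicle wells; lower values mean less growth of the strain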
Conditions: S. cerevisiae deletion strains, growth OD, locus YOR106W, strain vam3, hits give low values
About 2,000 (36%) of roughly 5,500 compounds were called active. Not shown: some 18% with an inconclusive outcome. The list shows a part of the results.
Result Type: normalized growth
Give bare numbers.

{"Compound": "CC12CCC(OC(=O)c3ccccc3)CC1CCc1ccccc12 (stereo unspecified)", "normalized growth": 1.01}
{"Compound": "O=C(O)CCC(=O)OC[C@@H](NC(=O)C(Cl)Cl)[C@H](O)c1ccc([N+](=O)[O-])cc1", "normalized growth": 0.998}
{"Compound": "COc1cc([C@@H]2c3cc4c(cc3[C@H](O)[C@H]3COC(=O)[C@H]23)OCO4)cc(OC)c1OC", "normalized growth": 1.02}
{"Compound": "CC12CCC(O)CC1CCc1ccccc12 (stereo unspecified)", "normalized growth": 0.966}
{"Compound": "CC(C)=CCC/C(C)=C/CO", "normalized growth": 1.02}

Consider the additional compound presented here.
normalized growth recorded for this compound, CC1(C)CC23C(=O)CCC(O)C2(C)CCC13 (stereo unspecified) , is 0.962
